Data origin: patent US20240279318A1

Biological target: T1, AFP158/HLA-A*02:01 complex (human)
T1 construct: biotinylated on the BSP by BirA for ELISA and panning; also called biotinylated AFP158/HLA-A*02:01 complex; Bio-AFP158
Assay: SPR, scFv-mIgG2aFc from supernatant captured, complex as analyte
Reported koff values for a set of binders

| BINDER | UNIT_ABBREVIATION | koff |
| --- | --- | --- |
| AS179732 VL1g1VH1g1 scFv-mIgG2aFc (Fc fusion, not shown: a dimerising Fc or GST; small tags and cut ends) scFv: QSVLTQPPSASGTPGQRVTISCSGSSSNIGGNYVNWYQQLPGTAPKLLIYDNSNRASGVPDRFSGSKSGTSASLAISGLQSEDEADYYCASWDDSLSGAVFGGGTKLTVLGGGGSGGGGSGGGGSEVQLVESGGGLVQPGGSLRLSCAASGFTFLNYAMSWVRQAPGKGLEWVSSNSGAGSTYYADSVKGRFTISRDNSKNTLYLQMNSLRAEDTAVYYCAKGTNVGSWSSLHYWGQGTLVTVSS | s⁻¹ | 0.057 |
| AS179732 VL1VH1 scFv-mIgG2aFc (Fc fusion, not shown: a dimerising Fc or GST) scFv: QSVLTQPPSASGTPGQRVTISCTGSSSNIGGNYVNWYQQLPGTAPKLLIYDNSNRASGVPDRFSGSKSGTSASLAISGLQSEDEADYYCASWDDSLSGAVFGGGTKLTVLGGGGSGGGGSGGGGSEVQLVESGGGLVQPGGSLRLSCAASGFTFLNYAMSWVRQAPGKGLEWVSSNSGAGSTYYSDSVKGRFTISRDNSKNTLYLQMNSLRAEDTAVYYCAKGTNVGSWSSLHYWGQGTLVTVSS | s⁻¹ | 0.056 |
| AS179732 VL1VH1g1 scFv-mIgG2aFc (Fc fusion, not shown: a dimerising Fc or GST; small tags and cut ends) scFv: QSVLTQPPSASGTPGQRVTISCTGSSSNIGGNYVNWYQQLPGTAPKLLIYDNSNRASGVPDRFSGSKSGTSASLAISGLQSEDEADYYCASWDDSLSGAVFGGGTKLTVLGGGGSGGGGSGGGGSEVQLVESGGGLVQPGGSLRLSCAASGFTFLNYAMSWVRQAPGKGLEWVSSNSGAGSTYYADSVKGRFTISRDNSKNTLYLQMNSLRAEDTAVYYCAKGTNVGSWSSLHYWGQGTLVTVSS | s⁻¹ | 0.065 |
